Where do the numbers come from? From PubChem BioAssay (NCI).

- System: SNB-19 CNS
- PROTOCOL: NCI tumour cell line growth inhibition, 48 h
MEASURE_NAME: TGI

{"COMPOUND": "CCn1c(SCC(=O)NNC(=S)NC)nc2ccccc2c1=O", "SUBJECT_OF_TEST": "SNB-19 CNS", "MEASURE_NAME": "TGI", "TEST_VALUE": "> 100 µM"}
{"COMPOUND": "C/C1=C\\C=C(\\C(C)C)CC/C(C(=O)O)=C\\CC/C(C)=C/CC1", "SUBJECT_OF_TEST": "SNB-19 CNS", "MEASURE_NAME": "TGI", "TEST_VALUE": "51.2 µM"}
{"COMPOUND": "C=CCc1cc(OC)c2c(c1)C(OC)CC(c1ccc(OC)c(OC)c1)O2 (stereo unspecified)", "SUBJECT_OF_TEST": "SNB-19 CNS", "MEASURE_NAME": "TGI", "TEST_VALUE": "> 100 µM"}

Query string: Please report the recorded TGI for COc1cc2cc(Oc3ccc(NC(=O)Nc4ccc(Cl)c(Cl)c4)cc3)c(C)nc2cc1OC .
Result string: 24 µM

Query string: Request the reported TGI associated with CCn1c(-c2nonc2N)nc2cncc(C(=O)N3CC[C@H](N)C3)c21
Result string: > 25 µM

Query string: For the compound CCOC(=O)C1(C)CCCCC(=O)N1 (stereo unspecified) , what TGI is on record?
Result string: > 100 µM

---

Listing of entries alongside the reported TGI.
- System: MDA-N
- PROTOCOL: NCI tumour cell line growth inhibition, 48 h

Here's what some known entries look like.
{"MOLECULE": "C[C@H](C/C=C/C(C)(C)O)[C@H]1CC[C@@]2(C)[C@@H]3CC[C@H]4C(C)(C)[C@@H](O)CC[C@@]45C[C@@]35CC[C@]12C", "TEST_VALUE": "> 100 µM"}
{"MOLECULE": "CCc1ccccc1NNc1cc(=O)[nH]c(=O)[nH]1", "TEST_VALUE": "33.6 µM"}
{"MOLECULE": "CCOC(=O)Oc1ccc2c(c1)c(=O)c1c(NCCN(CC)CC)ccc3nnn2c31", "TEST_VALUE": "15.6 µM"}

Query string: What measured TGI goes with Cc1nc2c(=S)n(C)ncc2[nH]1 ?
Result string: > 100 µM

Query string: Look up TGI: O=S(=O)(c1cnccc1N1CCN(CCO)CC1)N1CCCC1
Result string: > 100 µM

Query string: Looking for the measured TGI of Cc1ccc(S(=O)(=O)NC(CN)C(=O)O)cc1 (stereo unspecified) , can you help?
Result string: > 100 µM

Query string: Quick check: TGI of CSC1NC(c2ccc(Cl)cc2)=C(C#N)C(=O)N1C1OCC(OC(C)=O)C(OC(C)=O)C1OC(C)=O (stereo unspecified) ?
Result string: > 100 µM

Query string: What measured TGI goes with CCOC(=O)C1=COC(C)(CCc2ccccc2)CC1=O (stereo unspecified) ?
Result string: > 100 µM

Query string: Dear colleague, I am looking for the recorded TGI of the following molecule: N#C[C@H](c1nc2ccccc2s1)c1nc2ccccc2nc1Cl
Result string: > 100 µM

Query string: If you can, please state the reported TGI value of COC(OC)[C@@H]1OC[C@@H](O)[C@@H]1n1cnc2c(N)ncnc21 .
Result string: > 100 µM

Query string: What does the data say about its TGI? Entry: CN(C)c1cccc(NC2=NCCO2)c1
Result string: 32.8 µM

---

- System: SK-MEL-28 melanoma
- PROTOCOL: NCI tumour cell line growth inhibition, 48 h
MEASURE_NAME: TGI

{"COMPOUND": "CC(=O)[CH-]C(=O)c1ccccc1.CC(=O)[CH-]C(=O)c1ccccc1.C[C@]12CCC(=O)C=C1CC[C@@H]1C2CC[C@@]2(C)C1CC[C@]2(C)[O-].C[C@]12CCC(=O)C=C1CC[C@@H]1C2CC[C@@]2(C)C1CC[C@]2(C)[O-].Cl.[Ti+4] (some centres undefined)", "TGI": "43 µM"}
{"COMPOUND": "N=c1c2c(=N)n3c(nc2nc2n1-c1ccccc1Sc1ccccc1-2)sc1cc(Cl)ccc13", "TGI": "13.6 µM"}
{"COMPOUND": "C[C@H](C/C=C/C(C)(C)O)[C@H]1CC[C@@]2(C)[C@@H]3CC[C@H]4C(C)(C)[C@@H](O)CC[C@@]45C[C@@]35CC[C@]12C", "TGI": "37.8 µM"}

Moving on to the next compound.
Query string: For the compound shown here, COC(=O)c1ccc(Nc2nc3nc[nH]c3c(=O)[nH]2)cc1 , give the reported TGI.
Result string: > 100 µM

---

- Tested on: UACC-62 melanoma
- PROTOCOL: NCI tumour cell line growth inhibition, 48 h
This section presents compounds with their documented TGI values.
The reply should be a number in µM, with the unit left off.

{"COMPOUND": "COc1ccccc1C[C@@H]1OC2(C=CC(=O)C=C2)O[C@H]1Cc1ccccc1OC", "MEASURE_NAME": "TGI", "TEST_VALUE": 23.2}

Query string: Record request: TGI value, item COc1ccc(/C(C#N)=C2C=C/C(=N/O)c3ccccc3\2)cc1
Result string: 7.47

Query string: I have this compound here, COc1cc2cc(Oc3ccc(NC(=O)Nc4ccc(Cl)c(Cl)c4)cc3)c(C)nc2cc1OC , and I need its recorded TGI.
Result string: 19.2

Query string: Any idea what its TGI is? The compound is CC(=O)[O][Hg][c]1c(C)c(C)cc(C)c1C
Result string: 4.59

---

- System: A498 renal
- PROTOCOL: NCI tumour cell line growth inhibition, 48 h; in the data active means GI50 below about 0.43 µM; inactive means the rest
API: response.call in true = active, false = inactive

Worked cases, answers included:
{"COMPOUND": "COc1cc2cc(Oc3ccc(NC(=O)Nc4ccc(Cl)c(Cl)c4)cc3)c(C)nc2cc1OC", "ASSIGNED_CLASS": "false"}
{"COMPOUND": "C=CC(=O)N1CC2(CC(n3nc(-c4ccc5c(cnn5C)c4)c(-c4c(Cl)c(C)cc5[nH]ncc45)c3C)C2)C1", "ASSIGNED_CLASS": "false"}
{"COMPOUND": "COc1cc2c(=O)[nH]c3cc([N+](=O)[O-])ccc3c2cc1[N+](=O)[O-]", "ASSIGNED_CLASS": "false"}

Switching to the query record.
Query string: // param item: CO[C@H]1C[C@@H]2CC[C@@H](C)[C@@](O)(O2)C(=O)C(=O)N2CCCC[C@H]2C(=O)O[C@H]([C@H](C)C[C@@H]2CC[C@@H](OCCO)[C@H](OC)C2)CC(=O)[C@H](C)C=C(C)[C@@H](O)[C@@H](OC)C(=O)[C@H](C)C[C@H](C)/C=C/C=C/C=C1C ; yields the recorded call
Result string: true

---

- Tested on: OVCAR-3 ovarian
- PROTOCOL: NCI tumour cell line growth inhibition, 48 h
Catalogue of TGI readings, one per entry.

{"COMPOUND": "CC(=O)Oc1ccc(/C=C/C(=O)O[C@@H](C(=O)O)[C@@H](OC(=O)/C=C/c2ccc(OC(C)=O)c(OC(C)=O)c2)C(=O)O)cc1OC(C)=O", "TEST_VALUE": "> 100 µM"}

Query string: // query TGI value for entry COc1cc2cc(Oc3ccc(NC(=O)Nc4ccc(Cl)c(Cl)c4)cc3)c(C)nc2cc1OC
Result string: 6.19 µM

Query string: Which TGI value belongs to CN(C)CCNC(=O)c1cccc2c1Oc1c(cccc1[N+](=O)[O-])O2 ?
Result string: 13.1 µM

Query string: // query TGI value for entry C#CCOc1ccc2ncnc(Nc3ccc(NC(=O)C=C)cc3)c2c1
Result string: > 100 µM

Query string: Item under review: Fc1cccc(F)c1C1SCc2nc3ccc(Cl)cc3n21 (stereo not given) . Reported TGI?
Result string: > 100 µM

---

- System: HCT-15 colon
- PROTOCOL: NCI tumour cell line growth inhibition, 48 h
MEASURE_NAME: TGI

{"COMPOUND": "CCOc1cc(NC(C)=O)ccc1C(=O)NN1C(=O)CSC1c1ccccc1 (stereo not drawn)", "MEASURE_NAME": "TGI", "TEST_VALUE": "> 100 µM"}
{"COMPOUND": "CC(=O)O[C@H]1CC[C@@]2(C)C(=CC[C@@H]3C2CC[C@]2(C)Nc4nc5ccccc5cc4CC32)C1 (stereo partly drawn)", "MEASURE_NAME": "TGI", "TEST_VALUE": "8.01 µM"}

Consider now this further compound.
Query string: I have this compound here, Cc1ccc(S(=O)(=O)NC(CN)C(=O)O)cc1 (stereo not drawn) , and I need its recorded TGI.
Result string: > 100 µM

---

- System: T-47D breast
- PROTOCOL: NCI tumour cell line growth inhibition, 48 h
MEASURE_NAME: TGI

Reference set (3 entries):
{"MOLECULE": "COC(OC)[C@@H]1OC[C@@H](O)[C@@H]1n1cnc2c(N)ncnc21", "MEASURE_NAME": "TGI", "TEST_VALUE": "> 100 µM"}
{"MOLECULE": "Cn1c(-c2c(N)n(CCCN3CCOCC3)c3nc(C#N)c(C#N)nc23)nc2ccccc21", "MEASURE_NAME": "TGI", "TEST_VALUE": "> 69.5 µM"}
{"MOLECULE": "CN(C)C(=S)SCC(=O)Nc1ccccc1", "MEASURE_NAME": "TGI", "TEST_VALUE": "> 100 µM"}

Query string: Requested read-out: TGI. Entry: COc1cccc(/C=C2\COc3ccc(-c4ccccc4)cc3C2=O)c1
Result string: 4.98 µM

Query string: Record request: TGI value, item CNc1ncc(-c2nnnn2-c2ccccc2)c(CN(C)C)n1
Result string: > 100 µM
